- procedure.details: qHTS RealTime-Glo MT Cell Viability Assay in HepG2 cells - 8 hour (AID 1224873); also: nearly all actives have a fitted effect of over 55% in size
- experimental.setup: RealTime-Glo luminescence; series mostly up to 76.8 µM
Results filed as inconclusive are left out. Calls of active or inactive are those of the source. Calls follow the shape of the dose curve; as a rule, active = well fitted cell-killing curve with a large enough effect in the repeat runs; inconclusive = weak or mixed curves; inactive = flat fitted curve, though single readings scatter.
Response enum: Yes for active, No for inactive

Look over these answered cases.
CC(C)(C)c1ccc(C(=O)CCCN2CCC(OC(c3ccccc3)c3ccccc3)CC2)cc1 : Yes
CCCCC(CC)CN=C(N)NC(N)=NCCCCCCN=C(N)NC(N)=NCC(CC)CCCC (stereo not given) : Yes
NC(=O)N1C(=O)C(C(=O)c2cc(Cl)cs2)c2cc(F)c(Cl)cc21 (stereo not given) : No
CC(C)(C)C(=O)OCOC(=O)[C@@H]1N2C(=O)[C@@H](NC(=O)[C@H](N)c3ccccc3)[C@H]2SC1(C)C : No

Please look at the following molecule next.
Please indicate how the test categorized NC(=O)NS(=O)(=O)c1ccc(N)cc1 .
No

Where do the numbers come from? From PubChem BioAssay (Tox21).
